# Test system: Brain
# PROCEDURE TEXT: Drug level in rat brain at 50 mg/kg, po
# Format: ADME, organism-based
# Set-up: dose 50 mg/kg, route oral
# ASSAY CONDITIONS: in vivo, read-out: Drug uptake
PROPERTY: concentration
A complete answer gives the number followed by the unit.

IN: Returns the measured concentration for the input compound. Input: `CN1C(=O)CC[C@H]1C(=O)NCc1cccc(C(F)(F)F)c1Cl`
OUT: 26.7 µM

====

# PROCEDURE TEXT: Lipophilicity, log D of the compound at pH 7.4
# Type: physicochemical
# ASSAY CONDITIONS: buffer
PROPERTY: logD
Enter a number only.

Consider the reported logD for these molecules:
                                   molecule  property  result_value
0  CN1C(=O)CC[C@H]1C(=O)NCc1cccc(C(F)(F)F)c1Cl [GSK1482160]      logD           1.9
1  Cc1nn(-c2ccccc2)c(C)c1CC(=O)NCc1ccc(F)cc1Cl      logD           3.4
2      Cc1n[nH]c(C)c1CC(=O)NCc1ccc(Cl)cc1Cl      logD           2.7
3  CC(C)N1C(=O)CCC1C(=O)NCc1ccc(F)cc1Cl (stereo not given)      logD           2.6

Now consider a different molecule.
IN: Reported logD, molecule `CN(C(=O)c1cc(Cl)c(=O)n(Cc2c(Cl)cccc2Cl)c1)c1ccccc1` : ____
OUT: 4.4

====

# PROCEDURE TEXT: Drug level in plasma of rat chronic constriction injury model at 20 mg/kg, po bid for 8 days measured on last day
# Format: ADME, organism-based
# Design: dose 20 mg/kg, route oral
PROPERTY: concentration at 192 h (µM)
Number in µM, nothing else.

IN: Entry `CN1C(=O)CC[C@H]1C(=O)NCc1cccc(C(F)(F)F)c1Cl` has what concentration at 192 h?
OUT: 5.91

Entry source: ChEMBL document CHEMBL1221272
